The measured values listed here are drawn from PubChem BioAssay AID1159580.

- protocol-notes: chemical genetic growth profiling, strain panel (AID 1159580);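 also: tested at 20 µM; growth read once vehicle control cultures reached saturation at 30 °C; 1 = growth at the plate median or of vehicle wells; lower values mean less growth of the strain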
- condition-summary: S. cerevisiae deletion strains, growth OD, locus YFL009W, strain cdc4, hits give low values
In all, about 5,500 compounds went through this assay and about 2,000 (36%) were called active. Roughly 18% stayed inconclusive and do not appear here. Some of the results follow.
Kindly state normalized growth for each of the entries shown.
Please give only the number in your answer, with no unit.

Item COc1cc(N2C(=O)C=CC2=O)cc(OC)c1OC has what recorded normalized growth?
0.968

Item N#C/C(=N/Nc1cccc(C(F)(F)F)c1)C(=O)c1csc(-c2cccnc2)n1 has what recorded normalized growth?
0.96

Item O=C(NNC(=S)Nc1ccc(Cl)cc1)c1ncc(C(F)(F)F)cc1Cl has what recorded normalized growth?
0.975

Item CC(C)(C)C(=O)c1sc2sc(C(=O)C(C)(C)C)c(N)c2c1N has what recorded normalized growth?
0.988

Item O=c1c(-c2ccccc2)c(O)c2cccc3c4ccccc4n1c23 has what recorded normalized growth?
0.14

Item CN1c2ccccc2C(C)(C)C12C=Cc1cc(O)ccc1O2 (stereo unspecified) has what recorded normalized growth?
0.968

Item O=C(Nc1cc2c(s1)-c1cc(Cl)ccc1SC2)Oc1ccccc1 has what recorded normalized growth?
0.997

Item FC(F)(F)c1cc(-c2ccc(Cl)cc2)n[nH]1 has what recorded normalized growth?
0.908

Item CSc1nnc(COc2ccc(C)c3c2CCC3)n1-c1ccccc1 has what recorded normalized growth?
0.974

Item Clc1ccc(N/N=C\c2sccc2Oc2ccccc2)cc1 has what recorded normalized growth?
0.968

Item O=C(Nc1cccnc1)c1cc2c(s1)-c1ccccc1CC2 has what recorded normalized growth?
0.915

* * *

Kindly state normalized growth for each of the entries shown.
- protocol-notes: chemical genetic growth profiling, strain panel (AID 1159580);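 also: tested at 20 µM; growth read once vehicle control cultures reached saturation at 30 °C; 1 = growth at the plate median or of vehicle wells; lower values mean less growth of the strain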
- condition-summary: S. cerevisiae deletion strains, growth OD, locus YMR129W, hits give low values
About 2,000 (36%) of roughly 5,500 compounds were called active. Not shown: some 18% with an inconclusive outcome. The list shows a part of the results.

Item COc1ccc(C(=O)c2ccccc2)c(O)c1O has what recorded normalized growth?
0.973 (inactive)

Item CCCCc1nc(Cl)c(CO)n1Cc1ccc(-c2ccccc2-c2nn[nH]n2)cc1 has what recorded normalized growth?
0.994 (inactive)

Item CC(=O)O[C@H]1CC[C@]2(C)C3CC[C@@]4(C)C(CC5O[C@@]6(CCC(C)CO6)[C@@H](C)C54)C3CC[C@@H]2C1 (stereo partly drawn) has what recorded normalized growth?
1 (inactive)

Item O=C1c2ccccc2C(=O)C1c1ccccc1 has what recorded normalized growth?
0.992 (inactive)

Item CC[C@@H](CO)NC(=O)[C@@H]1C=C2c3cccc4[nH]cc(c34)C[C@H]2N(C)C1 has what recorded normalized growth?
1 (inactive)

Item CCOc1ccc(NC(C)=O)cc1 has what recorded normalized growth?
1.01 (inactive)

Item COc1ccc(C2C(=O)c3ccccc3C2=O)cc1 has what recorded normalized growth?
0.972 (inactive)

Item Cc1onc(-c2c(Cl)cccc2Cl)c1C(=O)N[C@@H]1C(=O)N2[C@@H]1SC(C)(C)[C@@H]2C(=O)O has what recorded normalized growth?
0.997 (inactive)

Item CC(=O)O[C@H]1CC[C@]2(C)C3CC(=O)[C@]4(C)C(C(C)=O)=CCC4C3CC[C@H]2C1 (stereo partly drawn) has what recorded normalized growth?
0.991 (inactive)

Item CCCc1nc2c(C)cc(-c3nc4ccccc4n3C)cc2n1Cc1ccc(-c2ccccc2C(=O)O)cc1 has what recorded normalized growth?
1.01 (inactive)

Item COc1cc2c(cc1O)CCNC2C (stereo not drawn) has what recorded normalized growth?
0.996 (inactive)

Item CC(=O)OC[C@H]1O[C@@H](Oc2cc(OC(C)=O)c3c(=O)cc(-c4ccc(OC(C)=O)cc4)oc3c2)[C@H](OC(C)=O)[C@@H](OC(C)=O)[C@@H]1OC(C)=O has what recorded normalized growth?
0.987 (inactive)

Item Cc1onc(-c2ccccc2)c1C(=O)NC1C(=O)N2[C@@H]1SC(C)(C)[C@@H]2C(=O)O (stereo partly drawn) has what recorded normalized growth?
1.01 (inactive)
